Tested on: MOLT-4 leukemia
Test: NCI-60 one-dose screen, 48 h (100 = growth as untreated, 0 = no growth, -100 = all killed)
Conditions: 10 µM unless noted
About 83,000 compounds went through this panel and 20% of them were active in at least one assay; those are over-represented in the sample as a whole.
Kind request: treat 20% as inclusive, so growth at 20% or higher is true (1), anything lower is false (0).

Here's what some known entries look like.
compound | measurement-target | qualitative-label
O=S(=O)(CCN1CCOCC1)Nc1cc(-c2ccc3ncnc(Nc4ccc(F)c(Cl)c4)c3c2)cnc1Cl | MOLT-4 leukemia | false (0)
COc1cc(-c2nc(SCC(=O)Nc3ccc(C(C)=O)cc3)[nH]c(=O)c2C#N)cc(OC)c1OC | MOLT-4 leukemia | false (0)
Cc1cn(C2CC(N=[N+]=[N-])C(COP(=O)(O)OP(=O)(O)OP(=O)(O)O)O2)c(=O)[nH]c1=O (stereo not given) | MOLT-4 leukemia | false (0)
CCOC(=O)n1cnc2c(Cl)ncnc21 | MOLT-4 leukemia | true (1)
COc1ccc(CNc2nc3ccccc3c3c(=O)c4ccccc4sc23)cc1OC | MOLT-4 leukemia | true (1)

Check the entry Cc1cc(NC(=O)c2cccc(C(F)(F)F)c2)ccc1-n1ccc2c(NC(=O)c3ccccc3)nccc21 : does growth equal or exceed 20%?
true (1)

Check the entry O=C(Nc1cccc(-n2ccc3c(NC(=O)c4ccccc4)ncnc32)c1)Nc1ccc(Cl)c(C(F)(F)F)c1 : does growth equal or exceed 20%?
false (0)

Check the entry CC(C)(CCN=C(N)Nc1ccccn1)c1ccc(C(F)(F)F)cc1 : does growth equal or exceed 20%?
false (0)

Check the entry O=C(NCCNc1nccc(-c2c(-c3cccc(O)c3)nc3sccn23)n1)Nc1cccc(C(F)(F)F)c1 : does growth equal or exceed 20%?
true (1)

Check the entry C[C@H]1C=C(C[C@@H](O)CC#CC#CCCCCC[C@@H](O)[C@H]2CCC(=O)O2)C(=O)O1 : does growth equal or exceed 20%?
true (1)

Check the entry Cc1c(NC(=O)c2sc3nc4c(cc3c2N)CN(Cc2ccccc2)CC4)cccc1C(F)(F)F : does growth equal or exceed 20%?
true (1)

Check the entry COc1cc(NC(C)CCCN2C(=O)c3ccccc3C2=O)c2ncccc2c1OC (stereo not given) : does growth equal or exceed 20%?
false (0)

Check the entry COc1ccc(-c2nn(-c3ccc(NC(=O)Nc4ccc(Cl)c(Cl)c4)cc3)cc2-c2ccncc2)cc1Cl : does growth equal or exceed 20%?
false (0)

Check the entry CCC1S/C(=N\N=C(/C)c2cccs2)N(c2ccccc2)C1=O (stereo not given) : does growth equal or exceed 20%?
true (1)

Check the entry COc1cc2ncnc(Oc3ccc(NC(=O)Nc4ccc(C5(C#N)CCCC5)cc4)c4ccccc34)c2cc1OC : does growth equal or exceed 20%?
true (1)

###

System: SK-MEL-28 melanoma
Experiment: NCI-60 one-dose screen, 48 h (100 = growth as untreated, 0 = no growth, -100 = all killed)
Details: 10 µM unless noted
Compounds without any hit were thinned out: in the full panel of roughly 83,000, 20% have a hit.
Kind request: treat 70% as inclusive, so growth at 70% or higher is yes (1), anything lower is no (0).

Here's what some known entries look like.
compound | measurement-target | qualitative-label
CC(C)(C)NC(C1=CC(C)(C)c2ccccc2C1=O)c1ccccc1 (stereo unspecified) | SK-MEL-28 melanoma | no (0)
CCOc1ccccc1C(=O)N1CCN(c2cc(Cl)cc(Cl)c2)CC1 | SK-MEL-28 melanoma | no (0)
N#CC1=C(N)Oc2c(ccc3ccccc23)C1c1cc(=O)oc2ccc(Cl)cc12 (stereo unspecified) | SK-MEL-28 melanoma | no (0)
COc1ccc(/C=C/C(=O)c2ccc(Oc3ncnc4ccccc34)cc2)cc1OC | SK-MEL-28 melanoma | yes (1)
CN(C)c1ccc(/C=N/n2c(-c3cc(F)c(Cl)cc3Cl)nn(CN3CCOCC3)c2=S)cc1 | SK-MEL-28 melanoma | yes (1)

Check the entry CCn1c(SCC(=O)c2ccc(Br)cc2)nnc1-c1cc2c([nH]c3ccccc32)c(-c2cccc(O)c2)n1 : does growth equal or exceed 70%?
yes (1)

Check the entry O=C1OC(N(Cc2ccc(Cl)cc2)c2ccccc2)c2ccccc21 (stereo unspecified) : does growth equal or exceed 70%?
yes (1)

Check the entry CCCCOc1nc2ccc(Cl)cc2cc1/C=C/C(=O)/C=C/c1ccc(Cl)cc1 : does growth equal or exceed 70%?
yes (1)

Check the entry Nc1n[nH]c2cccc(C#Cc3cccc(NC(=O)c4cccc(C(F)(F)F)c4)c3)c12 : does growth equal or exceed 70%?
no (0)

Check the entry COc1ccccc1N1CCN(CCCOc2ccc(OCCCN3CCN(c4ccccc4OC)CC3)c(C(=O)c3cc(OC)c(OC)c(OC)c3)c2)CC1 : does growth equal or exceed 70%?
yes (1)

Check the entry CC(=O)Cc1cccnc1 : does growth equal or exceed 70%?
yes (1)

Check the entry CC1(C)N=C(N)N=C(N)N1c1cccc(CCCCc2ccccc2)c1 : does growth equal or exceed 70%?
no (0)

Check the entry O=C(NNC(=O)c1ccc([N+](=O)[O-])cc1)c1ccc([N+](=O)[O-])cc1 : does growth equal or exceed 70%?
yes (1)

Check the entry Nc1nc(Nc2ccc(OCc3cccc(F)c3)cc2)c2c(n1)[nH]c1ccc(O)cc12 : does growth equal or exceed 70%?
no (0)

Check the entry Oc1ccc(O)c(-[n+]2ccccc2)c1 : does growth equal or exceed 70%?
yes (1)
